B1: DnaJ homolog subfamily C member 2, residues 451 to 503; numbered along this chain, Q99543 (parent)
chain: SKNWSEDDLQLLIKAVNLFPAGTNSRWEVIANYMNIHSSSGVKRTAKDVIGKA

Variants of: B1
Experiment: abundance fitness (aPCA) (normalised: wild type 0, dead -1); higher = more abundant; growth selection in yeast, the domain comes from the species named
Conditions: Homo sapiens
Reported abundance fitness by item:
Lab note: jot the number down without any unit.

Use these answered entries as a reference point.
L18T: -0.054
N24Q: -0.112
V29C: -0.071

Query: Record request: abundance fitness value, item N32K
Reply: -0.083

Query: Record request: abundance fitness value, item G22K
Reply: -0.146

Query: Record request: abundance fitness value, item R26T
Reply: -0.52

Query: Record request: abundance fitness value, item K14A
Reply: -0.026

Query: Record request: abundance fitness value, item A21R
Reply: -0.054

Query: Record request: abundance fitness value, item I30E
Reply: -0.955

Query: Record request: abundance fitness value, item F19L
Reply: -0.602

Query: Record request: abundance fitness value, item A15N
Reply: -0.984
